target: bovine eNOS (Bos taurus (Bovine))
pKi: −log10 of the molar value.

[
  {
    "Molecule": "Cc1cc(N)nc(CCc2cncc(CCCN(C)C)c2)c1 [Compound 14k]",
    "pKi": 4.78
  }
]

###

// each record: one item and its Ki for human eNOS (Homo sapiens (Human))

[
  {
    "Compound": "Cc1cc(N)nc(CCc2cncc(CCCN(C)C)c2)c1 [Compound 14k]",
    "Ki": "39.5 µM"
  },
  {
    "Compound": "Cc1cc(N)nc(CCc2cncc(N3CCOCC3)c2)c1 [Compound 14c]",
    "Ki": "42.6 µM"
  }
]

###

test: in vitro; conditions: human, pH 7.4

[
  {
    "Molecule": "CNCCCc1cncc(CCc2cc(C)cc(N)n2)c1 [Compound 14j]",
    "Unit Spec": "%",
    "recovery at 4 h, 5 μM": 91
  }
]

###

molecular target: rat nNOS (Rattus norvegicus (Rat)); experiment: Oxyhemoglobin NO assay, Ki (Table 9); format: biochemical; settings: ratio Ki eNOS to Ki rat nNOS
Below, each of the compounds is paired with its reported e/n value.

[
  {
    "Compound": "CCNCCN(C)c1cc(C#N)cc(CCc2cc(C)cc(N)n2)c1 [Compound 21a]",
    "e/n": 583.7
  },
  {
    "Compound": "Cc1cc(N)nc(CCc2cc(F)cc(NCc3cccnc3)c2)c1 [Compound 23g]",
    "e/n": 10.0
  },
  {
    "Compound": "Cc1cc(N)nc(CCc2cccc(NCCN(C)C)c2)c1 [Compound 10b]",
    "e/n": 125
  },
  {
    "Compound": "Cc1cc(N)nc(CCc2cc(C#N)cc(N(C)CCNC(C)C)c2)c1 [Compound 21b]",
    "e/n": 320.1
  },
  {
    "Compound": "Cc1cc(N)nc(CCc2cc(F)cc(N3CCNCC3)c2)c1 [Compound 23h]",
    "e/n": 82.8
  },
  {
    "Compound": "Cc1cc(N)nc(CCc2cc(C#N)cc(N(C)CCNC3CC3)c2)c1 [Compound 21c]",
    "e/n": 274.0
  },
  {
    "Compound": "CCN(CCNC)c1cc(F)cc(CCc2cc(C)cc(N)n2)c1 [Compound 23d]",
    "e/n": 93.2
  },
  {
    "Compound": "CCNCCN(C)c1cc(F)cc(CCc2cc(C)cc(N)n2)c1 [Compound 23b]",
    "e/n": 558.4
  },
  {
    "Compound": "Cc1cc(N)nc(CCc2cccc(N(C)CCCN)c2)c1 [Compound 10d]",
    "e/n": 25
  },
  {
    "Compound": "Cc1cc(N)nc(CCc2cc(F)cc(NC3CCNCC3)c2)c1 [Compound 23i]",
    "e/n": 40.2
  },
  {
    "Compound": "Cc1cc(N)nc(CCc2cc(F)cc(N(C)CCNC3CC3)c2)c1 [Compound 23c]",
    "e/n": 124.3
  },
  {
    "Compound": "CNCCN(C)c1cccc(CCc2cc(C)cc(N)n2)c1 [Compound 10a]",
    "e/n": 156
  },
  {
    "Compound": "Cc1cc(N)nc(CCc2cccc(N(C)CCN)c2)c1 [Compound 10c]",
    "e/n": 172
  },
  {
    "Compound": "Cc1cc(N)nc(CCc2cc(F)cc(NCc3cccc(Cl)c3)c2)c1 [Compound 23f]",
    "e/n": 262.0
  },
  {
    "Compound": "CNCCN(c1cc(F)cc(CCc2cc(C)cc(N)n2)c1)C1CC1 [Compound 23e]",
    "e/n": 140.9
  },
  {
    "Compound": "CNCCN(C)c1cc(CCc2cc(C)cc(N)n2)cc(C(F)(F)F)c1 [Compound 19a]",
    "e/n": 238
  },
  {
    "Compound": "Cc1cc(N)nc(CCc2cc(F)cc(NCCN(C)C)c2)c1 [Compound 23a]",
    "e/n": 136.9
  }
]
